Provide the recorded TGI for the entries that follow.
System: SK-MEL-2 melanoma
Test: NCI tumour cell line growth inhibition, 48 h

Please state recorded TGI (tested on SK-MEL-2 melanoma) of `Cc1ccccc1C1=C(c2cn(C)c3ccccc23)C(=O)NC1=O`
> 25 µM

Can you handle `Cn1c(-c2ccc(-c3cc(-c4cccs4)c(-c4cccs4)n3C)cc2)cc(-c2cccs2)c1-c1cccs1` next?
> 100 µM

Now try `O=C1c2cc(I)ccc2N2CCN=C2N1Cc1ccccc1` .
> 100 µM

Now the compound `O=C(CN1CCCC1=O)CS(=O)(=O)c1ccccc1`
> 100 µM

Would you mind doing `COc1ccc2c(c1)[n+]([O-])c(-c1cccc(Cl)c1)c(N)[n+]2[O-]` as well?
> 100 µM
